assay-overview: NCI Yeast Anticancer Drug Screen. Data for the sgs1 mgt1 strain (AID 161);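 further: 0% = growth of cultures given vehicle only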
settings: S. cerevisiae sgs1 mgt1 strain, at 5.0 µM (retest, dose inferred, filed as 0.5), stronger effect = higher value
About 79,000 compounds went through this panel and 15% of them were active in at least one assay; those are over-represented in the sample as a whole.
Each item that follows carries a reported growth inhibition.
measured-attribute: growth inhibition (%)

{"compound": "O=[N+]([O-])c1cnc(F)c(Br)c1", "measured-attribute": "growth inhibition", "recorded-number": 99}
{"compound": "CC(C)(C)OC(=O)NCCNC(=O)CN(CC(=O)O)C1CCCCC1N(CC(=O)O)CC(=O)O (stereo unspecified)", "measured-attribute": "growth inhibition", "recorded-number": 1}
{"compound": "OB1c2ccccc2CCc2ccccc21", "measured-attribute": "growth inhibition", "recorded-number": -4}
{"compound": "CCCCCCCCCCCCNCc1ccc(Cl)c(Cl)c1", "measured-attribute": "growth inhibition", "recorded-number": 89}
{"compound": "Cc1ccc(S(=O)(=O)/C=C/C(=O)c2ccc3ccccc3c2)cc1", "measured-attribute": "growth inhibition", "recorded-number": 84}
{"compound": "CC(Br)Cc1ccc2c(c1)OCO2 (stereo unspecified)", "measured-attribute": "growth inhibition", "recorded-number": 3}

* * *

assay-overview: NCI Yeast Anticancer Drug Screen. Data for the bub3 strain (AID 167)
settings: S. cerevisiae bub3 mutant strain, at 50.0 µM
This is part of a sample that, as a whole, favours compounds with a hit. Of some 79,000 tested, about 15% had one in any assay. The source made the active and inactive calls. No stated cut-off is given here; in the data, active means growth inhibition above about 70%; inactive means the rest.
Classes used: YES (active), NO (inactive)

{"cpd-smiles": "CCCc1cc2c(cc1CN(C#N)Cc1cc3c(cc1CCC)OCO3)OCO2", "label": "YES"}
{"cpd-smiles": "[N-]=[N+]=Nc1c(C=O)c(=O)n(-c2ccccc2)c2ccccc12", "label": "NO"}
{"cpd-smiles": "CCCCCCN(CCCCCC)CCC(=O)c1ccc2cc(Cl)c3ccccc3c2c1", "label": "NO"}
{"cpd-smiles": "CCOC(=O)/C(=N/NS(=O)(=O)c1c(C)cc(C)cc1C)c1ccco1", "label": "YES"}
{"cpd-smiles": "CCN(CC)c1ccc(/C=C2/C[N+](C)(C)C/C(=C/c3ccc(N(CC)CC)cc3)C2=O)cc1", "label": "YES"}

* * *

assay-overview: NCI Yeast Anticancer Drug Screen. Data for the mec2-1 strain (AID 157)
settings: S. cerevisiae mec2-1 strain, at 50.0 µM (retest, dose inferred, filed as 5.0), stronger effect = higher value
This is part of a sample that, as a whole, favours compounds with a hit. Of some 79,000 tested, about 15% had one in any assay.
Each item that follows carries a reported growth inhibition.
measured-attribute: growth inhibition (%)

{"compound": "Fc1cccc(CSc2ncnc3c2ncn3C2CCCS2)c1 (stereo not drawn)", "measured-attribute": "growth inhibition", "recorded-number": 87}
{"compound": "S=C(NCc1ccccc1)N/N=C/c1ccccn1", "measured-attribute": "growth inhibition", "recorded-number": 57}
{"compound": "O=C(O)/C=C/C(=O)c1ccc(O)cc1", "measured-attribute": "growth inhibition", "recorded-number": 94}
{"compound": "N#CCc1ccc2c(c1)Sc1ccccc1O2", "measured-attribute": "growth inhibition", "recorded-number": -26}
{"compound": "CC(=O)OC1=CC2=CCC3C(CCC4(C)C(C(C)=O)CCC34)C2(C)CC1 (stereo not drawn)", "measured-attribute": "growth inhibition", "recorded-number": 7}
{"compound": "CCCCCCCCNC(=O)C(Cl)Cl", "measured-attribute": "growth inhibition", "recorded-number": 11}
{"compound": "CCCCCCCCCCCCCCC(O)C(=O)O (stereo not drawn)", "measured-attribute": "growth inhibition", "recorded-number": -31}
{"compound": "O=C(O)CCCCCCC(=O)CCl", "measured-attribute": "growth inhibition", "recorded-number": 82}
{"compound": "Cc1cccc(NC(=O)Oc2ccc(Cl)c3cccnc23)c1", "measured-attribute": "growth inhibition", "recorded-number": 99}
{"compound": "CCN(CC)c1cc(Nc2c3ccc(Cl)cc3nc3cc(Cl)ccc23)ccc1O", "measured-attribute": "growth inhibition", "recorded-number": -3}
{"compound": "CCNC(=S)N/N=C/c1ccccn1", "measured-attribute": "growth inhibition", "recorded-number": 92}
{"compound": "CS(=O)(=O)n1c(C(O)c2ccccc2)nc2ccccc21 (stereo not drawn)", "measured-attribute": "growth inhibition", "recorded-number": -1}
{"compound": "Cc1cc(NCCCN(C)C)c2cc3ccc4cccc5ccc(c2n1)c3c45", "measured-attribute": "growth inhibition", "recorded-number": 23}
